Experiment: self-splicing fitness, log relative to wild type (ln ratio); higher = more splicing; Tetrahymena group I intron in knt gene, E. coli kanamycin selection, DiMSum; sequences stand for … in CUCUCU…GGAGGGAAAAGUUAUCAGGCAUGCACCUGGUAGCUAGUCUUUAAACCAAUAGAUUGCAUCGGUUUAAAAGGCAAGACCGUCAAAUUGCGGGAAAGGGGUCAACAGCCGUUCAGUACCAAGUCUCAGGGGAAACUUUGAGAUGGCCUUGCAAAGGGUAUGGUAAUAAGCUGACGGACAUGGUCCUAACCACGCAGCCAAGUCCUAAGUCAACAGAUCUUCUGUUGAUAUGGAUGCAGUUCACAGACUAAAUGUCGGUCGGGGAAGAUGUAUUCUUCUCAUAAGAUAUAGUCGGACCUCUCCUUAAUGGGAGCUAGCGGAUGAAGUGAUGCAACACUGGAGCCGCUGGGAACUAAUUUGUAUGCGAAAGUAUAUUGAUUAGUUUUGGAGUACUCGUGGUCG;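 note: selection with 25 µg/mL kanamycin versus none on LB agar overnight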
Details: 37 °C
Assignment: determine reported self-splicing fitness (ln) for the given sequences.
Respond numerically, and do not add a unit to the figure.

// self-splicing fitness (ln) lookup, key: `ACGGAGCAAUAUUACGCAUC`
-2.03

Can you look up the measured self-splicing fitness (ln) of `UGAAAGCAAUAUUACGGUGU` for me?
-2.02

If you can, please state the reported self-splicing fitness (ln) value of `AAGAAGCAAUAUUACGCUGA` .
-2.04

# input sequence: `UAUAAGCAAUAUUACGCUAG` ; wanted: its self-splicing fitness (ln)
-0.688

* * *

Assay: self-splicing fitness, log relative to wild type (ln ratio); higher = more splicing; Tetrahymena group I intron in knt gene, E. coli kanamycin selection, DiMSum; sequences stand for … in CUCUCU…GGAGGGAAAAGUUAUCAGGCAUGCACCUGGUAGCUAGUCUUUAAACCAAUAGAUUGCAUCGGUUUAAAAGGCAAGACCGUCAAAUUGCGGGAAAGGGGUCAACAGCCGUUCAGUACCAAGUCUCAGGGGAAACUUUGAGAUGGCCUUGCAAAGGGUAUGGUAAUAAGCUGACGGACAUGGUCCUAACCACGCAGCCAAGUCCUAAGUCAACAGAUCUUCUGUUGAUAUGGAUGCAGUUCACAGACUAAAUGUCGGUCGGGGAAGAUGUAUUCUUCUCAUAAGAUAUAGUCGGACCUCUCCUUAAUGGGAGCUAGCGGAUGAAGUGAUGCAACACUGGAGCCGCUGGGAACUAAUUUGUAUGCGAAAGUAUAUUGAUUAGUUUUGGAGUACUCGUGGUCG
Conditions: 30 °C
Please note: class 1 applies when self-splicing fitness (ln) is -2 or greater, and class 0 applies otherwise.

In plain terms: is recorded self-splicing fitness (ln) at least -2 for `CGCGAGCAAUAUUACGCAGU` ?
class 0

Quick check: does `GAACAGCAAUAUUACGUCGC` have self-splicing fitness (ln) greater than or equal to -2?
class 1

Does `AUUGAGCAAUAUUACGCUGA` have a reported self-splicing fitness (ln) of at least -2?
class 0

Hi, just wondering whether `GACUAGCAAUAUUACGCCUG` shows self-splicing fitness (ln) of -2 or higher.
class 1

API: above_or_equal(metric=self-splicing fitness (ln), cutoff=-2) for item `CAUAAGCAAUAUUACGAAUG`
class 0

* * *

Provide the recorded self-splicing fitness (ln) for the entries that follow.
Test: self-splicing fitness, log relative to wild type (ln ratio); higher = more splicing; Tetrahymena group I intron in knt gene, E. coli kanamycin selection, DiMSum; sequences stand for … in CUCUCU…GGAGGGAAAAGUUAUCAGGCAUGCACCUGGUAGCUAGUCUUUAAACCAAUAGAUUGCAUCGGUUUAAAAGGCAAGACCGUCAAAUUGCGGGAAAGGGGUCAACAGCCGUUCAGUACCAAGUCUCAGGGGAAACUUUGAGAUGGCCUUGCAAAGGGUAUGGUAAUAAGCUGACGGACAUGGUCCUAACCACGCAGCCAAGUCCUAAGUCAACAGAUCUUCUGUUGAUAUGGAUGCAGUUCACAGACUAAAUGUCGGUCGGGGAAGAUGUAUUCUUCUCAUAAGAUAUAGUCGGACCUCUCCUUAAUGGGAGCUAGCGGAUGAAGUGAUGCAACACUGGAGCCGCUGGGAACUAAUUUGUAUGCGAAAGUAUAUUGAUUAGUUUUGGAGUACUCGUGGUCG
Settings: 30 °C
The response must contain the number and no unit.

Which self-splicing fitness (ln) value belongs to `ACAAAGCAAUAUUACGUUGA` ?
-1.49

Consider the sequence `CGACAGCAAUAUUACGACAU` and give its measured self-splicing fitness (ln).
-2.44

I'd like to know its self-splicing fitness (ln). The sequence in question is `CAACAGCAAUAUUACGAUAU`
-4

Looking for the measured self-splicing fitness (ln) of `AAUGAGCAAUAUUACGAAUG` , can you help?
-3.34

Entry `GUAAAGCAAUAUUACGCGUU` : reported self-splicing fitness (ln) = ?
-1.65

Endpoint output: self-splicing fitness (ln) of `ACAAAGCAAUAUUACGUUAA` . Value?
-2.91

Can you share its self-splicing fitness (ln)? I mean this sequence: `CAGGAGCAAUAUUACGAUUG`
-3.77

So what does the record say about self-splicing fitness (ln) for `CCGAAGCAAUAUUACGACGG` ?
-3.76

Recorded self-splicing fitness (ln) of `AGAAAGCAAUAUUACGUUUA` , please.
-1.96

Query: self-splicing fitness (ln); subject: `ACUGAGCAAUAUUACGCGCC`
-2.73

Endpoint output: self-splicing fitness (ln) of `GAAUAGCAAUAUUACGGCGG` . Value?
-2.65

For the sequence `ACGCAGCAAUAUUACGCUGG` , what self-splicing fitness (ln) is on record?
-2.25

Which self-splicing fitness (ln) is reported for this sequence? `AGGCAGCAAUAUUACGCUAU`
-1.45

So what does the record say about self-splicing fitness (ln) for `CGGUAGCAAUAUUACGGGAG` ?
-3.22

Reported self-splicing fitness (ln) for `CCCAAGCAAUAUUACGACGU` : what is it?
-2.11

# input sequence: `CUCCAGCAAUAUUACGGCGC` ; wanted: its self-splicing fitness (ln)
-3.37

So what does the record say about self-splicing fitness (ln) for `AAUAAGCAAUAUUACGUUGA` ?
-2.96

What value of self-splicing fitness (ln) has been recorded for this entry: `AACUAGCAAUAUUACGUUGA`
-1.52

Quick one: self-splicing fitness (ln) for `ACCGAGCAAUAUUACGCUCA` ?
-1.14

* * *

Test: self-splicing fitness, log relative to wild type (ln ratio); higher = more splicing; Tetrahymena group I intron in knt gene, E. coli kanamycin selection, DiMSum; sequences stand for … in CUCUCU…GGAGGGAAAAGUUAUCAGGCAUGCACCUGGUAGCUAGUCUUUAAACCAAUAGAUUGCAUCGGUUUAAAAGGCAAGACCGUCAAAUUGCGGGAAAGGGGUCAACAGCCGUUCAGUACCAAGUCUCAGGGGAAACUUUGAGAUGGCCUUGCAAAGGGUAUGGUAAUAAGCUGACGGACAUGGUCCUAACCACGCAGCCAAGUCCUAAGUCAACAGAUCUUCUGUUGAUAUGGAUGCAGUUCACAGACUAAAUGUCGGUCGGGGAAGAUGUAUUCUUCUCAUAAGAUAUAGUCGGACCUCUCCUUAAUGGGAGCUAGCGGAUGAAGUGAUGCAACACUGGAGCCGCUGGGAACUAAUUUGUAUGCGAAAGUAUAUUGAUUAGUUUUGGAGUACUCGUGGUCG
Conditions: 37 °C
Please respond with reported self-splicing fitness (ln) for every item in the list.
Field format: numeric only.

Bench note: what self-splicing fitness (ln) did `AGGCAGCAAUAUUACGCUCC` show?
-2.01

Endpoint output: self-splicing fitness (ln) of `CUAUAGCAAUAUUACGGGAA` . Value?
-2.26

Need self-splicing fitness (ln), item `CUAUAGCAAUAUUACGACAG`
0.0869

Find the recorded self-splicing fitness (ln) belonging to `CUCCAGCAAUAUUACGUGAG` and report it.
-2.62

Dear colleague, I am looking for the recorded self-splicing fitness (ln) of the following sequence: `GGCAAGCAAUAUUACGGCUC`
-0.854

* * *

Experiment: self-splicing fitness, log relative to wild type (ln ratio); higher = more splicing; Tetrahymena group I intron in knt gene, E. coli kanamycin selection, DiMSum; sequences stand for … in CUCUCU…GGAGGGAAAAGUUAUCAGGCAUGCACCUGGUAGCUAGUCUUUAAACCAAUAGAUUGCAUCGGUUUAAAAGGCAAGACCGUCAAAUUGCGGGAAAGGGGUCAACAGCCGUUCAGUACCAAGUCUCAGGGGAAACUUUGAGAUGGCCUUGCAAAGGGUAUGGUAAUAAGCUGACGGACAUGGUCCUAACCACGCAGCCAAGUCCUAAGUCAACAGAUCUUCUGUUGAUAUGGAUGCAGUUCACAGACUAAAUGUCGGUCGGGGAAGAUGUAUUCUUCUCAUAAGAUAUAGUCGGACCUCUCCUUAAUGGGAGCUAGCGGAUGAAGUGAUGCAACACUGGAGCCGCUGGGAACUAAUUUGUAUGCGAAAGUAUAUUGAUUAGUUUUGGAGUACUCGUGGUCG
Details: 30 °C
property measured: self-splicing fitness (ln)

Look up self-splicing fitness (ln) for this sequence: `GAGGAGCAAUAUUACGGGCU`
-2.72

# get_value(readout='self-splicing fitness (ln)', item= `ACUUAGCAAUAUUACGGUGG` )
-3.72

self-splicing fitness (ln) lookup needed for `GAUGAGCAAUAUUACGUUUC` , thanks.
-2.77

Data request, read-out self-splicing fitness (ln), for `AUUCAGCAAUAUUACGCCUC`
-1.43

What measured self-splicing fitness (ln) goes with `CCACAGCAAUAUUACGGACC` ?
-4.45

Look at this sequence and give its reported self-splicing fitness (ln). `AGAUAGCAAUAUUACGUUAA`
-2.88

What does the data say about its self-splicing fitness (ln)? Entry: `AUCUAGCAAUAUUACGGGUA`
-1.97

Field request: self-splicing fitness (ln) | item: `UGCUAGCAAUAUUACGCACU`
-2.3

For `GGAGAGCAAUAUUACGCAAA` , what is its reported self-splicing fitness (ln)?
-3.82

Would you kindly share the measured self-splicing fitness (ln) for `UCUUAGCAAUAUUACGCCUG` ?
-2.25

I am curious: what self-splicing fitness (ln) value has been reported for `UUAUAGCAAUAUUACGACGG` ?
-0.906

Param item = `UACAAGCAAUAUUACGGGAA` ; retrieve measured self-splicing fitness (ln).
-2.41

Given `GGAAAGCAAUAUUACGGGCC` , state its recorded self-splicing fitness (ln).
-2.41

Reported self-splicing fitness (ln), sequence `AUGGAGCAAUAUUACGAACG` : ____
-2.21

Item `CAGGAGCAAUAUUACGGGCU` has what recorded self-splicing fitness (ln)?
-4.13

// returns reported self-splicing fitness (ln) for input `CUCCAGCAAUAUUACGUGGU`
-3.42

Endpoint output: self-splicing fitness (ln) of `GUGCAGCAAUAUUACGUUCU` . Value?
-1.1

Need self-splicing fitness (ln) of `AGCAAGCAAUAUUACGGACG` , thanks.
-0.404

# input sequence: `GCUUAGCAAUAUUACGUGAC` ; wanted: its self-splicing fitness (ln)
-1.54

Record request: self-splicing fitness (ln) value, item `GCCAAGCAAUAUUACGGUUU`
-1.08

Entry `GCUGAGCAAUAUUACGAACC` : reported self-splicing fitness (ln) = ?
-1.08

Entry `UUUUAGCAAUAUUACGAGCA` has what self-splicing fitness (ln)?
-1.72

Please report the recorded self-splicing fitness (ln) for `CGUAAGCAAUAUUACGUUGA` .
-3.23

Which self-splicing fitness (ln) reading was recorded for the sequence `GUCGAGCAAUAUUACGAGCC` ?
-3.81

Quick one: self-splicing fitness (ln) of `AGCGAGCAAUAUUACGGUUG` ?
-2.69

Entry `CAUGAGCAAUAUUACGCAAA` : reported self-splicing fitness (ln) = ?
-3.92

Consider the sequence shown here: `UUCUAGCAAUAUUACGGAAC` What is its recorded self-splicing fitness (ln)?
-3.74

Please give the measured self-splicing fitness (ln) for this sequence: `CCCCAGCAAUAUUACGUGAC`
-2.7

Any idea what self-splicing fitness (ln) was measured for `CGCUAGCAAUAUUACGCCCU` ?
0.0689

Which self-splicing fitness (ln) is reported for this sequence? `ACCAAGCAAUAUUACGGAUC`
-3.49

Fill in the blank: the reported self-splicing fitness (ln) of `CGUCAGCAAUAUUACGACUC` is ____.
-0.282

For `ACCGAGCAAUAUUACGGUGG` , what is its reported self-splicing fitness (ln)?
-2.91

Where these numbers come from: the supplement of paper PMC7877785
